Test: IRF3 reporter activation in THP-1 macrophages, cell-based, PMA-stimulated THP-1, luminescence (AID 1053176)
Settings: PMA-differentiated THP-1, IRF3 reporter luminescence; active compounds read high
Reported property: fraction signal
Answers are plain numbers.

Known results for compounds:
Compound	Reported property	Observed result
CC(C)=Cc1cccc2[nH]c(O)c(N=Nc3ccc(S(N)(=O)=O)cc3)c12	fraction signal	0
CS(=O)(=O)CCn1c(=O)c(Oc2ccc(F)cc2F)cc2cnc(NC3CCOCC3)nc21	fraction signal	0.0015
COc1cccc(-n2ncc3c(N/N=C/c4ccc(C)cc4)ncnc32)c1	fraction signal	0.0005
c1ccc(-c2nc3n(c2-c2ccc4c(c2)OCO4)CCC3)nc1	fraction signal	-0.003
Cc1ccccc1C1=C(c2cn(C)c3ccccc23)C(=O)NC1=O	fraction signal	0.0035
Cc1ccc2[nH]c(O)c(N=Nc3ccc(S(N)(=O)=O)cc3)c2c1	fraction signal	-0.0055
CC(=O)N[C@H](Cc1ccc(OP(=O)(O)O)cc1)C(=O)N[C@@H]1CCC(=O)N2CCC[C@@H](C(=O)N[C@H]3CCc4ccccc43)N2C1=O	fraction signal	-0.003
N#Cc1c(C(=O)c2ccccc2)cnn1-c1ccccc1	fraction signal	-0.007
Cn1cc(C2=C(c3cn(CCO)c4ccccc34)C(=O)NC2=O)c2ccccc21	fraction signal	-0.0245
NC(=O)c1ccc2c(-c3ccnc(NCCCO)n3)c(-c3ccc(F)cc3)nn2c1	fraction signal	0.003

Hey, can you go through the list below and give me fraction signal for every item?
1. Cn1c(=O)c(Oc2ccc(F)cc2)cc2cnc(NC3CCOCC3)nc21
2. COC(=O)Nc1nc2ccc(Oc3ccc(NC(=O)Nc4cc(C(F)(F)F)ccc4F)cc3)cc2s1
3. Fc1ccc(-c2nc3n(c2-c2ccncc2)CCS3)cc1
4. COc1cccc(-c2c[nH]c3c(N/N=C/c4ccncc4)ncnc23)c1

1. -0.0055
2. 0
3. -0.0105
4. 0.002

For each of the compounds below, note its fraction signal.
1. Nc1nc(-c2ccc3c(c2)/C(=C\c2cc(Br)c(O)c(Br)c2)C(=O)N3)cs1
2. O=S(=O)(CCOCc1ccc(-c2ccc3ncnc(Nc4ccc(OCc5cccc(F)c5)c(Cl)c4)c3c2)o1)c1ccccc1
3. COc1ccc(-c2nn3ncccc3c2-c2ccnc(Nc3ccc4c(c3)OCCO4)n2)cc1
4. CCN(CC)S(=O)(=O)c1ccc(OC)c(Nc2ncc(-c3ccccc3)o2)c1

1: -0.002; 2: -0.003; 3: 0.0025; 4: -0.012

# per-item lookup of fraction signal; items listed below
1. CC(c1ccccc1)C(C(=O)Nc1ccc(I)cc1F)N1C(=O)NC(c2ccc(OCC(O)CO)cc2)C1=O (stereo not given)
2. COc1ccc(-c2cc(C3CNNC3c3ccccn3)ccn2)cc1 (stereo not given)

1: 0.0035; 2: -0.0055

====

Assay: HCT116 colon cancer cell growth inhibition, primary screen, CellTiter-Glo luminescence, NPC library (AID 1117342)
Conditions: at 20 µM (top of the series)
Active and inactive are the calls of the source.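 Rule for the calls: active = compounds that lower survival of HCT116 colon cancer cells in the luminescence readout, no numeric limit stated; inactive = the rest.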
Permitted responses: 1.0 = active, 0.0 = inactive

Answered examples (10):
Molecule	Label
O=C1C(c2[nH]c3ccc(S(=O)(=O)O)cc3c2O)=Nc2ccc(S(=O)(=O)O)cc21	0.0
COc1cc2nc(Cl)nc(N)c2cc1OC	0.0
CCc1cc(S(=O)(=O)O)c2cc(C(C)C)cccc1-2	0.0
CN(C)c1ccc(C(=C2C=CC(=[N+](C)C)C=C2)c2ccccc2)cc1	1.0
CC(C)NC(=O)c1ccc(C=O)cc1	0.0
O=C(O)[C@@H]1CSCN1	0.0
CCOC(=O)COc1ccc2c(C)c(CCN(CC)CC)c(=O)oc2c1Cl	0.0
C=CC[N+]1([C@H]2C[C@H]3[C@@H]4CC[C@H]5C[C@H](OC(C)=O)[C@@H](N6CCCCC6)C[C@]5(C)[C@H]4CC[C@]3(C)[C@H]2OC(=O)CC)CCCCC1	0.0
CN(CCOc1ccc(CC2SC(=O)NC2=O)cc1)c1ccccn1 (centres undefined)	0.0
COc1ccc([C@@H]2CC(=O)c3c(O)cc(O[C@@H]4O[C@H](CO[C@@H]5O[C@@H](C)[C@H](O)[C@@H](O)[C@@H]5O)[C@@H](O)[C@H](O)[C@@H]4O)cc3O2)cc1O	0.0

Tell me the recorded outcome of this test for CN1CCCC(n2nc(Cc3ccc(Cl)cc3)c3ccccc3c2=O)CC1 (centres undefined) .
1.0

Moving on to CN(C)C(=O)CNC(=O)Cc1ccccc1
0.0

Also check CN(C)CCC[C@@]1(c2ccc(F)cc2)OCc2cc(C#N)ccc21
0.0

Ok, now CCCC(=O)O[C@]1(C(=O)CCl)[C@@H](C)C[C@H]2[C@@H]3CCC4=CC(=O)C=C[C@]4(C)[C@@]3(F)C(=O)C[C@@]21C
1.0

Next up: C=CCN1C(=O)C(CC(C)C)NC1=S (centres undefined)
0.0

Same question for CC(=O)OC[C@H]1O[C@@](COC(C)=O)(O[C@H]2O[C@H](COC(C)=O)[C@@H](OC(C)=O)[C@H](OC(C)=O)[C@H]2OC(C)=O)[C@@H](OC(C)=O)[C@@H]1OC(C)=O please.
0.0

Input COc1cc(C(=S)N2CCOCC2)ccc1O
0.0

Now try Cc1ccc(C(C)C)c(O)c1 .
0.0

====

Experiment: growth inhibition of GSK3B-pretreated HCT116 cells – cell-based, CellTiter-Glo, 0.2 to 20 µM (AID 1117336)
Settings: HCT116 viability after GSK3B inhibitor, at 20 µM, active compounds read high
Consider the following compounds; for each one, report its viability decrease.
Give bare numbers, in %.

Sample answers from the record:
Compound	Measurement units	viability decrease
O=S(O)CO	%	-7.1
CCN(CC)CC(=O)Nc1c(C)cccc1C(=O)OC	%	-3

Batch lookup, viability decrease per entry.
1. CC(NN)c1ccccc1 (stereo unspecified)
2. OCCN1CCN(CCCN2c3ccccc3Sc3ccc(C(F)(F)F)cc32)CC1
3. CCCCCCCCCCC(CO)CCCCCCCC (stereo unspecified)
4. O=C1C(c2[nH]c3ccccc3c2O)=Nc2ccccc21
5. Cc1ccccc1N1CCN(CCc2nnc3n2CCCC3)CC1

1: 13.8; 2: 118; 3: 11.5; 4: 18.2; 5: 25.8

Give one value of viability decrease per listed compound.
1. CCCC(=O)OC[C@@H](OC(=O)CCC)[C@@H](OC(=O)CCC)[C@H](Cn1c2nc(=O)[nH]c(=O)c-2nc2cc(C)c(C)cc21)OC(=O)CCC
2. CNC(=O)c1c(I)c(NC(=O)CCCCC(=O)Nc2c(I)c(C(=O)O)c(I)c(C(=O)NC)c2I)c(I)c(C(=O)O)c1I

1. 39.1
2. -17.5

Give viability decrease for each listed item.
1. CCC(=O)Oc1ccc2c(c1)CC[C@@H]1[C@@H]2CC[C@@]2(C)[C@H]1C[C@@H](OC(=O)CC)[C@@H]2OC(=O)CC
2. CC(=O)CC(c1ccccc1)c1c(O)c2ccccc2oc1=O (stereo unspecified)

[-51.4, -5.05]

====

Molecular target: 6-phosphogluconate dehydrogenase, decarboxylating (Homo sapiens) (UniProt P52209)
Sequence (P52209 whole entry, looked up): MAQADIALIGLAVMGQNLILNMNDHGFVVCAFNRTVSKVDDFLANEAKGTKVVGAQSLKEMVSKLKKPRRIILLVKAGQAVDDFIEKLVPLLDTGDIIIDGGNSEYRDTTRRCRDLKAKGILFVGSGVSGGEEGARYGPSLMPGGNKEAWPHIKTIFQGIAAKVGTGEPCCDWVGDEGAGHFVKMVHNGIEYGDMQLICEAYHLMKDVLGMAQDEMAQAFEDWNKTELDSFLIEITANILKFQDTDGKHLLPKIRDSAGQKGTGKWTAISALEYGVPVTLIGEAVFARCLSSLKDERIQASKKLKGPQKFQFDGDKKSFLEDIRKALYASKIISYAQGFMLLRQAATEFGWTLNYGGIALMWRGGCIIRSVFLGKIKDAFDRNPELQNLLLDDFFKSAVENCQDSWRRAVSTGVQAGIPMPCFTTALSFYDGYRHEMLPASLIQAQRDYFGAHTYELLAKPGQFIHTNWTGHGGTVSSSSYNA
Test: 6PGD enzyme inhibitors, primary screen, biochemical, human, recombinant enzyme, NADPH absorbance (AID 1159550)
Conditions: recombinant 6PGD, NADPH absorbance 341 nm; at 10 µM; active compounds read high
Reported property: inhibition (%)
One number for each entry, in %.

Take a look at these entries with their results.
Compound	inhibition / %
NS(=O)(=O)c1cc2c(cc1C(F)(F)F)NCNS2(=O)=O	-4.61
CCCCNC(=O)NS(=O)(=O)c1ccc(C)cc1	-14.4
Cc1ccc(S(=O)(=O)NC(=O)NN2CCCCCC2)cc1	16.2

The following compounds each have a reported value; give each one's inhibition.
1. Cc1ccc(-c2cc(C(F)(F)F)nn2-c2ccc(S(N)(=O)=O)cc2)cc1
2. NS(=O)(=O)c1cc(C2(O)NC(=O)c3ccccc32)ccc1Cl (configuration not stated)
3. OCCN1C[C@H](O)[C@@H](O)[C@H](O)[C@H]1CO

[13.7, 7.34, 6.33]

Would you mind giving inhibition for every compound in the list below?
1. Cc1ccc(O)c([C@H](CCN(C(C)C)C(C)C)c2ccccc2)c1
2. CN1CCN(CCCN2c3ccccc3Sc3ccc(C(F)(F)F)cc32)CC1

1. -2.71
2. 8.36

====

Assay: stimulators of nuclear beta-catenin in C2C12, primary screen, imaging, WNT3A-conditioned medium, mouse C2C12, NPC library (AID 1117326); further: reference of the scale not given here
Details: at 10 µM, active compounds read high
Calls of active or inactive are those of the source. No stated cut-off is given here; in the data, active means nuclear beta-catenin stimulation mostly above about 4.2% (no sharp cut-off); inactive means mostly below about 10%.
Reported property: nuclear beta-catenin stimulation

Record nuclear beta-catenin stimulation for all entries; do not skip any.
1. Nc1nc2c(ncn2COCCO)c(=O)[nH]1
2. N[C@@H](CSSC[C@H](N)C(=O)O)C(=O)O
3. COc1cc2nc(N(C)CCCNC(=O)C3CCCO3)nc(N)c2cc1OC (stereo not given)
4. CCCN(CCC)C(=O)C(CCC(=O)OCCCN1CCN(CCOC(=O)Cc2c(C)n(C(=O)c3ccc(Cl)cc3)c3ccc(OC)cc23)CC1)NC(=O)c1ccccc1 (stereo not given)
5. C[C@@H]1O[C@@H](OC[C@H]2O[C@@H](Oc3c(-c4ccc(O)c(O)c4)oc4cc(O)cc(O)c4c3=O)[C@H](O)[C@@H](O)[C@@H]2O)[C@H](O)[C@H](O)[C@H]1O
6. C/C=C/C(=O)N(CC)c1ccccc1C
7. CCCCC/C=C\C/C=C\CCCCCCCC(=O)NC(C)c1ccccc1 (stereo not given)
8. O=c1[nH]sc2cc(Cl)ccc12

1. 3% (inactive)
2. 1.1% (inactive)
3. 1.8% (inactive)
4. 51% (active)
5. 0% (inactive)
6. 1.7% (inactive)
7. 0.2% (inactive)
8. 15.5% (inactive)

For every listed record, write down its nuclear beta-catenin stimulation.
1. CN1[C@@H]2CC[C@H]1CC(NC(=O)n1c(=O)[nH]c3ccccc31)C2 (stereo not given in full)
2. CC(O)COc1ccccc1 (stereo not given)

1: 1.7% (inactive); 2: -0.1% (inactive)

Measured values drawn from PubChem BioAssay for this set.
